Where do these numbers come from? They come from patent US6608082B1.

Biological target: MCR-1 (Homo sapiens)
Construct: expressed in transfected cells; host or cells: HEK 293
Assay: Melanocortin receptor binding assay, competition with 125I-HP 467, HEK 293 cells expressing hMCR-1
Details: inhibition of binding of 125I-HP 467, HEK 293 cells expressing MCR-1; read-out: MC-1 IC50
pIC50: −log10 of the molar value.
Classify on pIC50 using bin A: < 6; bin B: ≥ 6 and < 7; bin C: ≥ 7

Answered cases to consult:
molecule="CCNc1ccc(C2C(CN)c3ccccc3CN2CCCC(CN)NC)cc1 (centres unmarked)" study_target="MCR-1 (Homo sapiens)" answer_label="bin B"
molecule="CCNc1ccc(C2C(CN)c3ccccc3CN2CCCC(CN)NCCC2CCCCC2)cc1 (centres unmarked)" study_target="MCR-1 (Homo sapiens)" answer_label="bin C"
molecule="CCNc1ccc(C2C(CN)c3ccccc3CN2CCCC(CN)NCCCCNc2ccccc2)cc1 (centres unmarked)" study_target="MCR-1 (Homo sapiens)" answer_label="bin B"

[ask] Please let me know in which category the item NCC(CCCCN1Cc2ccccc2C(CNCCc2ccccc2)C1c1cc(C(F)(F)F)cc(C(F)(F)F)c1)NCc1ccc(Br)cc1 (centres unmarked) belongs.
[reply] bin A

[ask] Could you do the same for COc1cccc(CCNCC2c3ccccc3CN(CCCCC(CN)NCc3ccccc3)C2c2cccc(C(F)(F)F)c2)c1 (centres unmarked) , please?
[reply] bin A

[ask] Could you do the same for CCCCCNc1ccc(C2C(CNCCc3ccccc3)c3ccccc3CN2CCCCC(CN)NCCc2ccccc2)cc1 (centres unmarked) , please?
[reply] bin B

[ask] Could you do the same for CCNc1ccc(C2C(CNCCc3ccccc3)c3ccccc3CN2CCC[C@@H](CN)NCCOCCN(CC)CC)cc1 (some centres unmarked) , please?
[reply] bin C

====

Target: MCR-4 (Homo sapiens)
Construct: expressed in transfected cells; host or cells: HEK 293
Sequence (P32245 whole entry): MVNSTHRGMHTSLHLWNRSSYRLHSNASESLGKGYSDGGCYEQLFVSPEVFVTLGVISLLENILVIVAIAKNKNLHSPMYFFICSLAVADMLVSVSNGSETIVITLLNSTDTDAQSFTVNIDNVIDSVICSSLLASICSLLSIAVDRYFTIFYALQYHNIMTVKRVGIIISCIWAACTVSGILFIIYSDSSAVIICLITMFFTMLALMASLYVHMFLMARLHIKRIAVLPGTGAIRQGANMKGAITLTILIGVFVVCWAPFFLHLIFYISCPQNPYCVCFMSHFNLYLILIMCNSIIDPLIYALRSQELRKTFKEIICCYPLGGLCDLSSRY
Assay: Melanocortin receptor binding assay, competition with 125I-HP 467, HEK 293 cells expressing hMCR-4
Details: inhibition of binding of 125I-HP 467, HEK 293 cells expressing MCR-4; TRG 2414 library; read-out: MC-4 IC50
Readout: log10(IC50) (log10 of the value in µM)
A difference of one corresponds to tenfold IC50; all values are log10 with IC50 in µM.

compound="COc1ccc(CCNCC2c3ccccc3CN(CCCCC(CN)NCc3ccccc3)C2c2ccc(Oc3ccccc3)cc2)cc1 (centres unmarked)" study_target="MCR-4 (Homo sapiens)" readout=log10(IC50) recorded_value=0.93
compound="COc1cccc(CNCC2c3ccccc3CN(CCCCC(CN)NCc3ccccc3)C2c2ccc(Oc3ccccc3)cc2)c1 (centres unmarked)" study_target="MCR-4 (Homo sapiens)" readout=log10(IC50) recorded_value=1.10
compound="NCC(CCCCN1Cc2ccccc2C(CNCCc2cccc(Cl)c2)C1c1cccc(Oc2ccccc2)c1)NCCc1ccccc1 (centres unmarked)" study_target="MCR-4 (Homo sapiens)" readout=log10(IC50) recorded_value=0.91

Next item in the queue.
[ask] Returns the measured log10(IC50) for the input compound. Input: COc1cccc(CNCC2c3ccccc3CN(CCCCC(CN)NCC(C)c3ccc(CC(C)C)cc3)C2c2ccc(Cl)cc2Cl)c1 (centres unmarked)
[reply] 1.58

====

In this section we review reported pIC50 values for a set of molecules.
Target: MCR-1 (Homo sapiens, UniProt Q01726)
Construct: expressed in transfected cells; host or cells: HEK 293
Sequence (Q01726 whole entry): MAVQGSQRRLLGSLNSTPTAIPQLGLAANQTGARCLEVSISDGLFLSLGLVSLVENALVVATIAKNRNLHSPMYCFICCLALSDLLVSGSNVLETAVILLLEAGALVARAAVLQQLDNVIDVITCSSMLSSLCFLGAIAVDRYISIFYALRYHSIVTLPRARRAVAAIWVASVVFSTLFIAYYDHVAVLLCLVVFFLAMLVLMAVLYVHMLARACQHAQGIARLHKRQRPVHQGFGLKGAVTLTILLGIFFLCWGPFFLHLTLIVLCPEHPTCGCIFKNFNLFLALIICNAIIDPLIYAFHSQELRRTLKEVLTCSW
Test: Melanocortin receptor binding assay, competition with 125I-HP 467, HEK 293 cells expressing hMCR-1
Details: TRG 2406 and TRG 2407 libraries; inhibition of binding of 125I-HP 467; read-out: MC-1 IC50
Remember the convention: pIC50 equals -log10 of concentration in molar.

molecule="NCCN1Cc2ccccc2C(CNCc2ccccc2O)C1c1ccc(Oc2ccccc2)cc1 (mixture of isomers)" study_target="MCR-1 (Homo sapiens, UniProt Q01726)" recorded_value=4.98
molecule="CNC(CN)CCCCN1Cc2ccccc2C(CNCc2ccc(OC)cc2)C1c1ccc(Cl)cc1Cl (stereo not shown)" study_target="MCR-1 (Homo sapiens, UniProt Q01726)" recorded_value=5.64
molecule="C=CCNCC1c2ccccc2CN(CCCCC(CN)NC)C1c1ccc(Cl)cc1Cl (stereo not shown)" study_target="MCR-1 (Homo sapiens, UniProt Q01726)" recorded_value=6.37
molecule="CNC(CN)CCCCN1Cc2ccccc2C(CNCCc2ccc(OC)cc2)C1c1ccc(Cl)cc1Cl (stereo not shown)" study_target="MCR-1 (Homo sapiens, UniProt Q01726)" recorded_value=5.83
molecule="CNC(CN)CCCCN1Cc2ccccc2C(CNc2ccccc2)C1c1ccc(Cl)cc1Cl (mixture of isomers)" study_target="MCR-1 (Homo sapiens, UniProt Q01726)" recorded_value=5.25
molecule="CCn1c2ccccc2c2cc(C3C(CNCc4ccccc4O)c4ccccc4CN3CCCCC(CN)NC)ccc21 (stereo not shown)" study_target="MCR-1 (Homo sapiens, UniProt Q01726)" recorded_value=5.67
molecule="CNC(CN)CCCCN1Cc2ccccc2C(CNCCc2ccccc2OC)C1c1ccc(Cl)cc1Cl (mixture of isomers)" study_target="MCR-1 (Homo sapiens, UniProt Q01726)" recorded_value=6.03
molecule="CNC(CN)CCCCN1Cc2ccccc2C(CNCc2ccccc2Cl)C1c1ccc(Cl)cc1Cl (stereo not shown)" study_target="MCR-1 (Homo sapiens, UniProt Q01726)" recorded_value=5.57

[ask] Param readout= pIC50; system= MCR-1 (Homo sapiens, UniProt Q01726); entry= CNC(CN)CCCCN1Cc2ccccc2C(CNC(C)C)C1c1ccc(-c2ccccc2)cc1 (stereo not shown) ; returns value.
[reply] 6.51

[ask] Could you do the same for CCOc1ccccc1CNCC1c2ccccc2CN(CCCCC(CN)NC)C1c1ccc(Cl)cc1Cl (stereo not shown) , please?
[reply] 5.92

[ask] Could you do the same for CNC(CN)CCCCN1Cc2ccccc2C(CNCc2ccccc2O)C1c1cccc(Oc2ccc(Cl)c(Cl)c2)c1 (mixture of isomers) , please?
[reply] 5.76

[ask] Could you do the same for CCCOc1ccc(C2C(CNCc3ccccc3O)c3ccccc3CN2CC(CN)NC)cc1 (stereo not shown) , please?
[reply] 5.14

[ask] Could you do the same for CCNc1ccc(C2C(CNCc3ccccc3Cl)c3ccccc3CN2CCCCC(CN)NC)cc1 (stereo not shown) , please?
[reply] 6.36

[ask] Could you do the same for CNC(CN)CN1Cc2ccccc2C(CNCc2ccccc2O)C1c1ccc(Oc2ccccc2)cc1 (stereo not shown) , please?
[reply] 5.26

[ask] Could you do the same for CNC(CN)CCCCN1Cc2ccccc2C(CN)C1c1ccc(Cl)cc1Cl (stereo not shown) , please?
[reply] 6.04

[ask] Could you do the same for CCNc1ccc(C2C(CNc3ccc(Cl)cc3)c3ccccc3CN2CCCCC(CN)NC)cc1 (stereo not shown) , please?
[reply] 5.35

[ask] Could you do the same for CNC(CN)CCCCN1Cc2ccccc2C(CNc2ccccc2OC)C1c1ccc(Cl)cc1Cl (stereo not shown) , please?
[reply] 5.44

[ask] Could you do the same for CNC(CN)CCCCN1Cc2ccccc2C(CNCCc2ccccc2)C1c1ccc(Cl)cc1Cl (stereo not shown) , please?
[reply] 5.99

[ask] Could you do the same for CCNc1ccc(C2C(CNc3ccccc3Cl)c3ccccc3CN2CCCCC(CN)NC)cc1 (stereo not shown) , please?
[reply] 5.15

[ask] Could you do the same for CNC(CN)CCCCN1Cc2ccccc2C(CN(C)Cc2ccccc2)C1c1ccc(Cl)cc1Cl (stereo not shown) , please?
[reply] 5.27

[ask] Could you do the same for NCCN1Cc2ccccc2C(CNCc2ccccc2O)C1c1cccc(Oc2ccccc2)c1 (stereo not shown) , please?
[reply] 5.13

[ask] Could you do the same for CCn1c2ccccc2c2cc(C3C(CNCc4ccccc4O)c4ccccc4CN3CCN)ccc21 (stereo not shown) , please?
[reply] 4.97

====

Target: MCR-1 (Homo sapiens)
Construct: expressed in transfected cells; host or cells: HEK 293
Experiment: Melanocortin receptor binding assay, competition with 125I-HP 467, HEK 293 cells expressing hMCR-1
Details: displacement of 125I-HP 467 at 10 μM isoquinoline compound; first of duplicate
Label rule met when % Disp. MC-1 10 μM < 40%; otherwise rule not met.

compound="Cc1cc(C2C(CNC3CCCCC3)c3ccccc3CN2CCN)cc(C)c1O (stereo not drawn) [TRG 2405-32]" study_target="MCR-1 (Homo sapiens)" answer_label="rule met"
compound="CC(C)c1ccc(C2C(CNC3CCCCC3)c3ccccc3CN2CCN)cc1 (stereo not drawn) [TRG 2405-67]" study_target="MCR-1 (Homo sapiens)" answer_label="rule not met"
compound="NCCN1Cc2ccccc2C(CNC2CCCCC2)C1c1ccc(F)cc1 (stereo not drawn) [TRG 2405-65]" study_target="MCR-1 (Homo sapiens)" answer_label="rule not met"
compound="NCCN1Cc2ccccc2C(CNC2CCCCC2)C1c1ccncc1 (stereo not drawn) [TRG 2405-74]" study_target="MCR-1 (Homo sapiens)" answer_label="rule met"
compound="CNC(CN)CN1Cc2ccccc2C(CNC2CCCCC2)C1c1ccccn1 (stereo not drawn) [TRG 2405-111]" study_target="MCR-1 (Homo sapiens)" answer_label="rule not met"

[ask] Please indicate whether the reported % Disp. MC-1 10 μM of CCCOc1ccc(C2C(CNC3CCCCC3)c3ccccc3CN2CC(CN)NC)cc1 (stereo not drawn) [TRG 2405-163] is strictly below 40%.
[reply] rule not met

[ask] Could you do the same for NCCN1Cc2ccccc2C(CNC2CCCCC2)C1c1ccccc1CN (stereo not drawn) [TRG 2405-15] , please?
[reply] rule met

[ask] Could you do the same for CNC(CN)CN1Cc2ccccc2C(CNC2CCCCC2)C1c1ccc(OCCCN(C)C)cc1 (stereo not drawn) [TRG 2405-144] , please?
[reply] rule met

[ask] Could you do the same for NCCN1Cc2ccccc2C(CNC2CCCCC2)C1c1cnc2ccccc2c1 (stereo not drawn) [TRG 2405-52] , please?
[reply] rule not met
